Endpoint Name: melting point

Use the examples below as a reference point.
INSERT INTO assay_data (molecule, result) VALUES
  ('COc1ccc(C2(O)OC(=O)C(c3cc(OC)c4c(c3)OCO4)=C2CC2CCCC2)cc1C (stereo unspecified)', '144 to 145 °C'),
  ('COc1cc2c(c(C(=O)c3ccccc3)c1)NC(=O)C2', '154 °C'),
  ('COC(=O)C1COc2c(C(=O)c3ccccc3)cc(C)cc21 (stereo unspecified)', '110 to 111 °C'),
  ('CC(C)(C)c1cc(-c2nc(O)ns2)cc(C(C)(C)C)c1O', '230 to 232 °C'),
  ('COC(=O)[C@H](Cc1ccc(OS(=O)(=O)c2ccc(C)cc2)cc1)NC(=O)OC(C)(C)C', '78.8 to 79.5 °C');

Look up and report measured melting point for this entry: CCOC(=O)c1ccc(CCN2CCN(C(=O)Cc3ccc(Cl)cc3)CC2)cc1 88 to 89 °C
